Source: ChEMBL document CHEMBL1961873

target.or.test.system: Aurora kinase A (Homo sapiens);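 note: values are mean percent inhibition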
details: at 1 µM
inhibition of 70% or higher: fulfilled. Under 70%: not fulfilled.

Could you please find out whether O=C(Nc1ccc(Oc2ccc3[nH]c(NC(=O)c4ccco4)nc3c2)cc1)Nc1cc(C(F)(F)F)ccc1F has inhibition that meets 70% or exceeds it?
not fulfilled

Could you please find out whether CN1CCN(C(=O)c2ccc(NC(=O)Nc3ccc(N(C)c4ccnc(Nc5ccc(CS(C)(=O)=O)cc5)n4)cc3)cc2)CC1 has inhibition that meets 70% or exceeds it?
fulfilled

Could you please find out whether CCOc1nccc2c1nc(-c1nonc1N)n2CC has inhibition that meets 70% or exceeds it?
not fulfilled

Could you please find out whether NS(=O)(=O)c1cccc(Nc2cc(-c3ccc(F)cc3)n[nH]2)c1 has inhibition that meets 70% or exceeds it?
not fulfilled

Could you please find out whether CN(C)C(=O)O[C@H]1CN[C@H](C#Cc2cc3ncnc(Nc4ccc(OCc5cccc(F)c5)c(Cl)c4)c3s2)C1 has inhibition that meets 70% or exceeds it?
not fulfilled

Could you please find out whether COc1ccc2ncnc(Nc3ccc(OCc4ccccc4)cc3)c2c1 has inhibition that meets 70% or exceeds it?
not fulfilled

Could you please find out whether NS(=O)(=O)c1ccc(NC=C2C(=O)Nc3ccc4ncsc4c32)cc1 has inhibition that meets 70% or exceeds it?
fulfilled

Could you please find out whether CN(C)CCCn1c(-c2nonc2N)nc2cnccc21 has inhibition that meets 70% or exceeds it?
not fulfilled

Could you please find out whether N#Cc1cccc(Nc2nccc(-c3cnn4ncccc34)n2)c1 has inhibition that meets 70% or exceeds it?
fulfilled

Could you please find out whether COc1cc2ncn(-c3cc(OCc4ccccc4S(C)(=O)=O)c(C#N)s3)c2cc1OC has inhibition that meets 70% or exceeds it?
fulfilled

Could you please find out whether Cc1ccc(NC(=O)CC2CC2)cc1-c1ccc(C(=O)NCC2CC2)cc1 has inhibition that meets 70% or exceeds it?
not fulfilled

Could you please find out whether O=C1Nc2ccccc2/C1=C/Nc1ccc2[nH]c(=O)[nH]c2c1 has inhibition that meets 70% or exceeds it?
not fulfilled
